- TESTED ON: Dual specificity protein phosphatase 6 (Rattus norvegicus) (UniProt Q64346)
- Sequence (Q64346 whole entry, looked up): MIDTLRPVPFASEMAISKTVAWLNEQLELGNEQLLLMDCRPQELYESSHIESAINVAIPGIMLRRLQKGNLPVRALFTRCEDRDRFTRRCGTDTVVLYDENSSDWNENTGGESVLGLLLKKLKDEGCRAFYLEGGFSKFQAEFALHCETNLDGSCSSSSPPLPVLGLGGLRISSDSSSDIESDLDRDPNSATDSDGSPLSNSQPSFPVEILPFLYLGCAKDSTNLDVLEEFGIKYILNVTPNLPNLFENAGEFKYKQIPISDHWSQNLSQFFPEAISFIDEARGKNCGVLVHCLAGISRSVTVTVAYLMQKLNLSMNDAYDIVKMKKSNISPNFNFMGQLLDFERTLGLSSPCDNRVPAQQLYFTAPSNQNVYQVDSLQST
- METHOD DESCRIPTION: MKP-3 phosphatase inhibitors, primary screen, biochemical, rat enzyme, in vitro (AID 425);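 also: plate controls were vehicle for no effect and reference inhibitor for full effect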
- EXPERIMENTAL CONTEXT: recombinant MKP-3 phosphatase activity, fluorescence; at 20 µM
The whole screen tested about 110,000 compounds, of which about 190 (0.17%) were called active. Rule as the data show it: active = inhibition above about 50%; inactive = the rest. The list comes from a sample in which actives are over-represented; it also holds close analogues and randomly drawn compounds. Potency and affinity values are given separately.
Outcome codes: 1 (yes) for active, 0 (no) for inactive

- COMPOUND: "CC(=O)c1ccc(NC2=C(Cl)C(=O)c3ccccc3C2=O)cc1"
  TESTED ON: "Dual specificity protein phosphatase 6 (Rattus norvegicus) (UniProt Q64346)"
  CAT: "0 (no)"
- COMPOUND: "Cc1ccc(C)n1-c1ccc(C(=O)O)c(Cl)c1"
  TESTED ON: "Dual specificity protein phosphatase 6 (Rattus norvegicus) (UniProt Q64346)"
  CAT: "0 (no)"
- COMPOUND: "CC(=O)NC1=C(N(C)C)C(=O)c2ccccc2C1=O"
  TESTED ON: "Dual specificity protein phosphatase 6 (Rattus norvegicus) (UniProt Q64346)"
  CAT: "0 (no)"
- COMPOUND: "Cc1ccc(C)n1-c1ccc(Br)cc1C(=O)O"
  TESTED ON: "Dual specificity protein phosphatase 6 (Rattus norvegicus) (UniProt Q64346)"
  CAT: "0 (no)"
- COMPOUND: "Cc1ccc(S(=O)(=O)NC(=O)N2CCc3ccccc32)cc1"
  TESTED ON: "Dual specificity protein phosphatase 6 (Rattus norvegicus) (UniProt Q64346)"
  CAT: "0 (no)"
- COMPOUND: "O=C(NCC1CCCO1)c1ccc(Cl)cc1 (centres undefined)"
  TESTED ON: "Dual specificity protein phosphatase 6 (Rattus norvegicus) (UniProt Q64346)"
  CAT: "0 (no)"
- COMPOUND: "COc1ccc(C2C(C(C)=O)=C(O)C(=O)N2c2nc3ccccc3s2)c(OC)c1 (centres undefined)"
  TESTED ON: "Dual specificity protein phosphatase 6 (Rattus norvegicus) (UniProt Q64346)"
  CAT: "0 (no)"
- COMPOUND: "O=C(c1cc2ccccc2oc1=O)N1CCCN(C(=O)c2cc3ccccc3oc2=O)CC1"
  TESTED ON: "Dual specificity protein phosphatase 6 (Rattus norvegicus) (UniProt Q64346)"
  CAT: "0 (no)"
- COMPOUND: "O=C(Nc1ncc(Cc2ccc(Cl)c(Cl)c2)s1)c1ccccc1Cl"
  TESTED ON: "Dual specificity protein phosphatase 6 (Rattus norvegicus) (UniProt Q64346)"
  CAT: "0 (no)"
- COMPOUND: "Cc1cc2nc(-c3ccc(SCC(=O)N4CCOCC4)nc3)[nH]c2cc1C"
  TESTED ON: "Dual specificity protein phosphatase 6 (Rattus norvegicus) (UniProt Q64346)"
  CAT: "0 (no)"
- COMPOUND: "CC(=O)C(C(C)=O)C1=C(Cl)C(=O)C(=O)c2ccccc21"
  TESTED ON: "Dual specificity protein phosphatase 6 (Rattus norvegicus) (UniProt Q64346)"
  CAT: "1 (yes)"
- COMPOUND: "Cc1ccccc1NC(=O)CCCN1C(=O)/C(=C/c2cccc3c2OCO3)SC1=S"
  TESTED ON: "Dual specificity protein phosphatase 6 (Rattus norvegicus) (UniProt Q64346)"
  CAT: "0 (no)"
- COMPOUND: "CC(C)c1ccc(NC2=NS(=O)(=O)c3cc([N+](=O)[O-])ccc32)cc1"
  TESTED ON: "Dual specificity protein phosphatase 6 (Rattus norvegicus) (UniProt Q64346)"
  CAT: "0 (no)"
- COMPOUND: "COc1ccc(OC)c(N2C(=O)NC(=O)C(=Cc3ccc(C)o3)C2=O)c1"
  TESTED ON: "Dual specificity protein phosphatase 6 (Rattus norvegicus) (UniProt Q64346)"
  CAT: "0 (no)"
- COMPOUND: "CCOC(=O)N1CCC(N2C(=O)c3ccccc3C2=O)CC1"
  TESTED ON: "Dual specificity protein phosphatase 6 (Rattus norvegicus) (UniProt Q64346)"
  CAT: "0 (no)"
- COMPOUND: "COc1ccc(C2CC(=O)C3=C(C2)Nc2ccccc2NC3c2cccs2)cc1 (centres undefined)"
  TESTED ON: "Dual specificity protein phosphatase 6 (Rattus norvegicus) (UniProt Q64346)"
  CAT: "0 (no)"
- COMPOUND: "COC(=O)c1ccc(-n2c(C)cc(/C=N/n3cnnc3)c2C)cc1"
  TESTED ON: "Dual specificity protein phosphatase 6 (Rattus norvegicus) (UniProt Q64346)"
  CAT: "0 (no)"
- COMPOUND: "Cc1cc(NC(=O)CSc2ccc(-c3nc4cc(C)c(C)cc4[nH]3)cn2)no1"
  TESTED ON: "Dual specificity protein phosphatase 6 (Rattus norvegicus) (UniProt Q64346)"
  CAT: "0 (no)"
- COMPOUND: "COc1cccc(N2C(=O)C(=Cc3ccc(OC)cc3OC)C(=O)NC2=S)c1"
  TESTED ON: "Dual specificity protein phosphatase 6 (Rattus norvegicus) (UniProt Q64346)"
  CAT: "0 (no)"
- COMPOUND: "CNS(=O)(=O)c1cc(O)c2c(S(=O)(=O)NC)cccc2c1"
  TESTED ON: "Dual specificity protein phosphatase 6 (Rattus norvegicus) (UniProt Q64346)"
  CAT: "0 (no)"
- COMPOUND: "COc1ccc(/C=N/NC(=O)c2cccc([N+](=O)[O-])c2)cc1Br"
  TESTED ON: "Dual specificity protein phosphatase 6 (Rattus norvegicus) (UniProt Q64346)"
  CAT: "0 (no)"
- COMPOUND: "COc1c(Cl)cc(C(=O)Nc2ccc(N3CCOCC3)cc2)cc1Cl"
  TESTED ON: "Dual specificity protein phosphatase 6 (Rattus norvegicus) (UniProt Q64346)"
  CAT: "0 (no)"
- COMPOUND: "Cc1ccc(-c2ccccc2)n1-c1ccc(O)c(C(=O)O)c1"
  TESTED ON: "Dual specificity protein phosphatase 6 (Rattus norvegicus) (UniProt Q64346)"
  CAT: "0 (no)"
- COMPOUND: "O=C(CN1C(=O)S/C(=C/c2ccccc2F)C1=O)Nc1ccccc1C(=O)O"
  TESTED ON: "Dual specificity protein phosphatase 6 (Rattus norvegicus) (UniProt Q64346)"
  CAT: "0 (no)"
- COMPOUND: "CC(=O)C(C(C)=O)C1=CC(=O)C(=O)c2ccccc21"
  TESTED ON: "Dual specificity protein phosphatase 6 (Rattus norvegicus) (UniProt Q64346)"
  CAT: "1 (yes)"
- COMPOUND: "Cc1ccc(C(=O)Nc2ccccc2C(=O)N2CC(C)OC(C)C2)cc1 (centres undefined)"
  TESTED ON: "Dual specificity protein phosphatase 6 (Rattus norvegicus) (UniProt Q64346)"
  CAT: "0 (no)"
- COMPOUND: "Cc1ccc(C)n1-c1ccc(O)c(C(=O)O)c1"
  TESTED ON: "Dual specificity protein phosphatase 6 (Rattus norvegicus) (UniProt Q64346)"
  CAT: "1 (yes)"
- COMPOUND: "COc1ccc(/C=C2\\SC(=O)N(CC(=O)Nc3ccc(C)cc3C)C2=O)cc1"
  TESTED ON: "Dual specificity protein phosphatase 6 (Rattus norvegicus) (UniProt Q64346)"
  CAT: "0 (no)"
- COMPOUND: "CC(=O)N(C1=C(Cl)C(=O)c2ccccc2C1=O)c1ccc(Cl)cc1"
  TESTED ON: "Dual specificity protein phosphatase 6 (Rattus norvegicus) (UniProt Q64346)"
  CAT: "0 (no)"
- COMPOUND: "COc1ccc(NC(=O)c2ccco2)cc1NC(=O)c1ccco1"
  TESTED ON: "Dual specificity protein phosphatase 6 (Rattus norvegicus) (UniProt Q64346)"
  CAT: "0 (no)"
- COMPOUND: "O=C(CN1C(=O)/C(=C/c2ccccc2)SC1=S)Nc1cccc(C(=O)O)c1"
  TESTED ON: "Dual specificity protein phosphatase 6 (Rattus norvegicus) (UniProt Q64346)"
  CAT: "0 (no)"
- COMPOUND: "Cc1ccc(C=C2C(=O)NC(=S)N(c3ccccc3Cl)C2=O)o1"
  TESTED ON: "Dual specificity protein phosphatase 6 (Rattus norvegicus) (UniProt Q64346)"
  CAT: "0 (no)"
- COMPOUND: "CC(=O)NC1=C(Cl)C(=O)c2ccccc2C1=O"
  TESTED ON: "Dual specificity protein phosphatase 6 (Rattus norvegicus) (UniProt Q64346)"
  CAT: "1 (yes)"
- COMPOUND: "Cc1ccc(N2CC(C(=O)Nc3ccc(N(C)C)cc3)CC2=O)cc1 (centres undefined)"
  TESTED ON: "Dual specificity protein phosphatase 6 (Rattus norvegicus) (UniProt Q64346)"
  CAT: "0 (no)"
